Consider the following compounds; for each one, report its viability, T/C.
- Test system: NCI-H196 complex spheroids with HUVEC/MSC, growth % T/C
- assay.notes: Anticancer human tumor NCI-H196 cell line growth inhibition [Asc];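 also: spheroids exposed to compound for 7 days before measurement; 100% = DMSO vehicle control wells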
- condition.details: second compound 0.0949 µM; first compound 0.01 µM; stronger effect = lower value
Field format: number, assumed %, no unit text.

GET /value?item= Cn1ncnc1[C@H]1c2n[nH]c(=O)c3cc(F)cc(c23)N[C@@H]1c1ccc(F)cc1 + CCN1C(C(=O)NC23CCC(C(=O)O)(CC2)CC3)C(c2cccc(Cl)c2F)C2(C(=O)Nc3cc(Cl)ccc32)C12CCCCC2 &field=viability, T/C returns 102

GET /value?item= CCN1CCN(Cc2ccc(Nc3ncc(F)c(-c4cc(F)c5nc(C)n(C(C)C)c5c4)n3)nc2)CC1 + CCN1C(C(=O)NC23CCC(C(=O)O)(CC2)CC3)C(c2cccc(Cl)c2F)C2(C(=O)Nc3cc(Cl)ccc32)C12CCCCC2 &field=viability, T/C returns 112

GET /value?item= CNC(C)C(=O)NC1CN(S(=O)(=O)c2cccc(S(=O)(=O)N3CCC4CCC(C(=O)NC(c5ccccc5)c5ccccc5)N4C(=O)C(NC(=O)C(C)NC)C3)c2)CCC2CCC(C(=O)NC(c3ccccc3)c3ccccc3)N2C1=O (stereo unspecified) + CCN1C(C(=O)NC23CCC(C(=O)O)(CC2)CC3)C(c2cccc(Cl)c2F)C2(C(=O)Nc3cc(Cl)ccc32)C12CCCCC2 &field=viability, T/C returns 19.1

GET /value?item= O=C(c1ccc(F)c(F)c1Nc1ccc(I)cc1F)N1CC(O)([C@@H]2CCCCN2)C1 + CCN1C(C(=O)NC23CCC(C(=O)O)(CC2)CC3)C(c2cccc(Cl)c2F)C2(C(=O)Nc3cc(Cl)ccc32)C12CCCCC2 &field=viability, T/C returns 121

GET /value?item= NC1CCC(NC2CC2c2ccccc2)CC1 (stereo unspecified) + CCN1C(C(=O)NC23CCC(C(=O)O)(CC2)CC3)C(c2cccc(Cl)c2F)C2(C(=O)Nc3cc(Cl)ccc32)C12CCCCC2 &field=viability, T/C returns 103

GET /value?item= COc1c(OCCCN2CCOCC2)ccc2c3n(c(=NC(=O)c4cnc(N)nc4)nc12)CCN3 + CCN1C(C(=O)NC23CCC(C(=O)O)(CC2)CC3)C(c2cccc(Cl)c2F)C2(C(=O)Nc3cc(Cl)ccc32)C12CCCCC2 &field=viability, T/C returns 99.6
